# Test system: rice
# ASSAY_TEXT: Test C flooded paddy test
# Type: in vivo, Oryza sativa
# CONDITION_SET: 125 g ai/ha, scale 0 to 100 (0 no effect, 100 complete control)
OUTCOME_MEASURE: Rice plant response rating

INPUT: Dear colleague, I am looking for the recorded Rice plant response rating of the following molecule: CCn1nc(C(C)(C)C)cc1C(=O)Nc1cc(C(=O)N2CCOCC2)ccc1F
OUTPUT: 75

INPUT: Lookup CCn1nc(C(C)(C)C)cc1C(=O)Nc1cccc(OC(F)(F)C(F)F)c1
OUTPUT: 0

INPUT: Lookup C#CCOc1cccc(NC(=O)c2cc(C(C)(C)C)nn2CC)c1
OUTPUT: 25

INPUT: Lookup CCn1nc(C2(C)CC2)cc1C(=O)Nc1cccc(C(=O)N2CC=CC2)c1
OUTPUT: 60

INPUT: Lookup CCn1nc(C(C)(C)C)cc1C(=O)Nc1cccc(OC(F)(F)F)c1
OUTPUT: 10

----------
# Tested on: small flower umbrella sedge
# ASSAY_TEXT: Test B flooded paddy test
# Assay type: in vivo, Cyperus difformis
# CONDITION_SET: 1000 g ai/ha, visual rating, scale 0 to 100 (0 no effect, 100 complete control), 13 to 15 days
OUTCOME_MEASURE: Sedge, Umbrella plant response rating
Form rule: numeric answer, no unit written next to it.

INPUT: Dear colleague, I am looking for the recorded Sedge, Umbrella plant response rating of the following compound: CCNC(=O)c1cc(C)cc(NC(=O)c2cc(C(C)(C)C)nn2CC)n1
OUTPUT: 50

INPUT: Lookup CCNC(=O)c1cc(C)nc(NC(=O)c2cc(C(C)(C)C)nn2CC)c1
OUTPUT: 60

INPUT: Lookup CCc1nn(C(C)(C)C)cc1C(=O)Nc1cccc(C(C)=NO)c1
OUTPUT: 80

INPUT: Lookup CCn1nc(C(C)(C)C)cc1C(=O)Nc1cccc(S(C)(=O)=O)c1
OUTPUT: 40

INPUT: Lookup C=CCN(C)C(=O)c1ccnc(NC(=O)c2cc(C(C)(C)C)nn2CC)c1
OUTPUT: 70

INPUT: Lookup CCn1nc(C(C)(C)C)cc1C(=O)Nc1nccc(OC)n1
OUTPUT: 0

INPUT: Lookup CCOC(=O)c1ccc(F)c(NC(=O)c2cc(CC(C)C)nn2CC)c1
OUTPUT: 0

INPUT: Lookup C=CCOC(=O)c1cccc(NC(=O)c2cc(C(C)(C)C)nn2CC)c1C
OUTPUT: 50

INPUT: Lookup C#CCNC(=O)c1cccc(NC(=O)c2sc(C(C)(C)C)nc2CC)n1
OUTPUT: 0

INPUT: Lookup CCNC(=O)c1cccc(NC(=O)c2cc(C(C)(C)C)nn2CC(C)C)c1
OUTPUT: 50

INPUT: Lookup CCn1nc(C(C)(C)C)cc1C(=O)Nc1cc(C(=O)OC)c(OC)cc1F
OUTPUT: 70

INPUT: Lookup C#CCOC(=O)c1cccc(NC(=O)c2cc(C(C)(C)C)nn2CC)c1
OUTPUT: 70

INPUT: Lookup CCN(CC)C(=O)c1cccc(NC(=O)c2cc(C(C)(C)C)nn2CC(F)(F)F)c1
OUTPUT: 20

INPUT: Lookup CCn1nc(C(C)(C)C)cc1C(=O)Nc1cc(C#N)ccc1F
OUTPUT: 80

INPUT: Lookup CCn1nc(C(C)(C)C)cc1C(=O)Nc1cccc(S(=O)(=O)C(F)(F)F)c1
OUTPUT: 80

INPUT: Lookup C#CCNC(=O)c1cccc(NC(=O)c2sc(C(C)(C)C)nc2C)c1
OUTPUT: 0

INPUT: Lookup C=CCNC(=O)c1cccc(NC(=O)c2sc(C(C)(C)C)nc2C)c1
OUTPUT: 50

INPUT: Lookup CCn1nc(C(C)(C)C)cc1C(=O)Nc1cc(C(=O)OC(C)C)c(OC)cc1F
OUTPUT: 80

INPUT: Lookup CCn1nc(C(C)(C)C)cc1C(=O)Nc1cccc(C#N)c1
OUTPUT: 80

INPUT: Lookup CCn1nc(C(C)(C)C)cc1C(=O)Nc1cccc(C(=O)OCC2CC2)c1C
OUTPUT: 70

INPUT: Lookup Cc1nc(C(C)(C)C)sc1C(=O)Nc1cccc(C(=O)NCCF)c1
OUTPUT: 50

INPUT: Lookup CCn1nc(C(C)(C)C)cc1C(=O)Nc1cccc(C(=O)OC(C)C)c1C
OUTPUT: 0

INPUT: Lookup CCN(CC)C(=O)c1cccc(NC(=O)c2cc(C(C)(C)C)nn2CC)n1
OUTPUT: 90
